Target: T1, EsCas13d, nuclease-dead (Eubacterium siraeum, UniProt B0MS50, R295A;H300A;R849A;H854A)
T1 sequence: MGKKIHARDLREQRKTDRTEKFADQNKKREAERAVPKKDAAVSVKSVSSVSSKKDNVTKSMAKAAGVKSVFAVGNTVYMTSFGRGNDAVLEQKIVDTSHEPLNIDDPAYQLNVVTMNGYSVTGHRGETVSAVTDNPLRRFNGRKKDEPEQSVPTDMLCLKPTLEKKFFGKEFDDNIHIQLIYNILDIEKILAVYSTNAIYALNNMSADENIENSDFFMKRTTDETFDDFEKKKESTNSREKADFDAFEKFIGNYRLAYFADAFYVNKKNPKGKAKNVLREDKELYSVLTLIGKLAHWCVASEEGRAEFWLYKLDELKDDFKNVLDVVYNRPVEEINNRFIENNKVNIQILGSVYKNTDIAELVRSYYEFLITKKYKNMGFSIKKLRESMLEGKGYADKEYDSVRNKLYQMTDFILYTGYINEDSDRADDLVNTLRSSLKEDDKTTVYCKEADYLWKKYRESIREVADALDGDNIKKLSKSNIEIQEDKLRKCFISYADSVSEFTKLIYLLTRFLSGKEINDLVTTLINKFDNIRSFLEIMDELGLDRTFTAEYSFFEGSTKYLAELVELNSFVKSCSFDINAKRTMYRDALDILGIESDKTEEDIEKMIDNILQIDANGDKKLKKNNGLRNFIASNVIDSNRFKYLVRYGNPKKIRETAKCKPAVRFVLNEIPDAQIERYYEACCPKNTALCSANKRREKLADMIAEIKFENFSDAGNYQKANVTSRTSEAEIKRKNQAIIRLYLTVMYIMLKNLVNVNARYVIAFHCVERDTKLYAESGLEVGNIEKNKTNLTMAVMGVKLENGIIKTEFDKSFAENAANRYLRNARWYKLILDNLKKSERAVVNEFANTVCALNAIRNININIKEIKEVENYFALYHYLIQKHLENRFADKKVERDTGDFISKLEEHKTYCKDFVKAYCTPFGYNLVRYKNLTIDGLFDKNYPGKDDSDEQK
Assay: crRNA (strand 1, pre-loaded); Mg2+; 40 mM Tris-HCl pH 7.5, 150 mM NaCl, 6 mM MgCl2, 1 mM DTT, 0.1% Tween-20, 0.2 mg/ml BSA; 25 C; 10 min per concentration, then washed
Conditions: tags: His6-TwinStrep-SUMO cleaved; N-terminal SNAP kept (SNAP-Surface 488); label: 3' end held by stalled T7 RNA polymerase
Task for the reader: assign each of the following binders its reported Kd.
The reply should be a number in nM, with the unit left off.

(Q) Give the measured Kd for target 2 MT 5'PFS UAU 3'PFS CCA (mixed) RNA 1: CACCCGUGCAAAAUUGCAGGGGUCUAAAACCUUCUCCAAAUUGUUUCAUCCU RNA 2: GGGAAUGGAUCCACAUCUACGAAUUCUAUAGGAUGAAACAAUUUGGAGAAGCCAAGAUCGGAAGAGCACACGU
(A) 37

(Q) Give the measured Kd for target 1 C7A,U11C (mixed) RNA 1: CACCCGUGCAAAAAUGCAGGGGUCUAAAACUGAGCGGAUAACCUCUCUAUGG RNA 2: GGGAAUGGAUCCACAUCUACGAAUUCGUACCAUAGAGAGGCUAUACGCUCACCGAGAUCGGAAGAGCACACGU
(A) 8.4

(Q) Give the measured Kd for target 2 MT 5'PFS UGA 3'PFS ACG (mixed) RNA 1: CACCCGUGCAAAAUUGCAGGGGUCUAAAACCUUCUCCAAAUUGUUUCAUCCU RNA 2: GGGAAUGGAUCCACAUCUACGAAUUCUGAAGGAUGAAACAAUUUGGAGAAGACGAGAUCGGAAGAGCACACGU
(A) 11.6

(Q) Give the measured Kd for target 1 insU 3' of 20,insC 3' of 10 (mixed) RNA 1: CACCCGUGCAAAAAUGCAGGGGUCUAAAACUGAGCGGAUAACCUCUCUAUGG RNA 2: GGGAAUGGAUCCACAUCUACGAAUUCGUACCAUUAGAGAGGUUCAUCCGCUCACCGAGAUCGGAAGAGCACACGU
(A) 30
